MEASURE: pIC50
Scale: pIC50 equals -log10([C]), with [C] in mol/L.

Req: // output pIC50; input C[C@H]1CN(c2ccc(C(F)(F)F)c(C[18F])c2)C(=O)c2c(C#Cc3ccc(N)nc3)cnn21 [Compound 2] ; system UniProt Q14416
Sequence (Q14416 19-872): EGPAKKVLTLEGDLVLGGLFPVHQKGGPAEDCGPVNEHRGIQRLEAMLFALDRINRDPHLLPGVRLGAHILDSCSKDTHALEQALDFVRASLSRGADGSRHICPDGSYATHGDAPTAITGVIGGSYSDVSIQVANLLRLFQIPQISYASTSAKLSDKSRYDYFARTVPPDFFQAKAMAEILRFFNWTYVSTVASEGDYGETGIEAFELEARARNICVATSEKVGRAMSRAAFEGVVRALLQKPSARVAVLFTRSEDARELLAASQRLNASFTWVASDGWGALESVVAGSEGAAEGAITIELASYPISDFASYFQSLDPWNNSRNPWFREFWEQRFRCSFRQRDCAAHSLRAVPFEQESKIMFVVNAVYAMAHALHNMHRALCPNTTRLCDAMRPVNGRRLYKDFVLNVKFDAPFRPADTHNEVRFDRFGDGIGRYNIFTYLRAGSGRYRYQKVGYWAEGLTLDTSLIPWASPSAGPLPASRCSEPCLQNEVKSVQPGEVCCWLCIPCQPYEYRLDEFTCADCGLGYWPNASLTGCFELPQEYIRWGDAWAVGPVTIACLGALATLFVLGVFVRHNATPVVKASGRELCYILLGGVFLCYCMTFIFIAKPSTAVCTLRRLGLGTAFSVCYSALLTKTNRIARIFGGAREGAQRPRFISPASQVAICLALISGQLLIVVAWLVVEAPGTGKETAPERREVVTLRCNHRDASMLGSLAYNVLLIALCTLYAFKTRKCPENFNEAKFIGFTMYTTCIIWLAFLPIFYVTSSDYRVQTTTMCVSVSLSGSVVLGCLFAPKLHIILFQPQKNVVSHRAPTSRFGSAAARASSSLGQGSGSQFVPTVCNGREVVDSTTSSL
Resp: 8.55
